molecular target: Human recombinant PTP1B (hPTP1B) (Homo sapiens, UniProt P18031); details: recombinant PTP1B, malachite green phosphate detection
Sequence (P18031 whole entry): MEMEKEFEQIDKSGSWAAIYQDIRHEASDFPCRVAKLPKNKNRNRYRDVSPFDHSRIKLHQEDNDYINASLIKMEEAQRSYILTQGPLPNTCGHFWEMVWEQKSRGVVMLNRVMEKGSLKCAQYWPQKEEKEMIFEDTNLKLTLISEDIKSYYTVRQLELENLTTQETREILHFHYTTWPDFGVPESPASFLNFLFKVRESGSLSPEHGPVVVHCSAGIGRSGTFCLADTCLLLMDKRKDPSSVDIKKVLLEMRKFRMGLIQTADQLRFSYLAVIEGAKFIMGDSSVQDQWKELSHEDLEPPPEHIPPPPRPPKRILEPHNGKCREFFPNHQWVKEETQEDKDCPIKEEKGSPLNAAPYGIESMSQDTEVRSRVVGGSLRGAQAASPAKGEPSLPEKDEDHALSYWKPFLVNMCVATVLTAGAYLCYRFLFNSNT
Items are presented alongside their recorded IC50.
RECORDED_ENDPOINT: IC50 (nM)

| COMPOUND | SYSTEM_UNDER_TEST | RECORDED_ENDPOINT | DISPLAY_UNIT | ENDPOINT_RESULT |
| --- | --- | --- | --- | --- |
| CCCCc1oc2ccccc2c1C(O)c1ccc(-c2ccc(OCC(=O)O)cc2)cc1 (stereo not drawn) [Example 19] | Human recombinant PTP1B (hPTP1B) (Homo sapiens, UniProt P18031) | IC50 | nM | 540 |
| CCCCc1oc2ccccc2c1Cc1ccc(-c2ccc(OCc3nnn[nH]3)cc2)cc1 [Example 18] | Human recombinant PTP1B (hPTP1B) (Homo sapiens, UniProt P18031) | IC50 | nM | 510 |
| CCCCc1oc2ccccc2c1C(O)c1ccc2c(Br)c(O)ccc2c1 (stereo not drawn) [Example 9] | Human recombinant PTP1B (hPTP1B) (Homo sapiens, UniProt P18031) | IC50 | nM | 480 |
| CCCCc1oc2ccccc2c1C(O)c1ccc2cc(O)ccc2c1 (stereo not drawn) [Example 1] | Human recombinant PTP1B (hPTP1B) (Homo sapiens, UniProt P18031) | IC50 | nM | 1160 |
| CCCCc1oc2ccccc2c1C(Sc1nc2ccccc2s1)c1ccc(-c2ccc(O)cc2)cc1 (stereo not drawn) [Example 28] | Human recombinant PTP1B (hPTP1B) (Homo sapiens, UniProt P18031) | IC50 | nM | 1160 |
| CCCCc1oc2ccccc2c1C(=O)c1ccc2c(Br)c(OCc3nnn[nH]3)ccc2c1 [Example 12] | Human recombinant PTP1B (hPTP1B) (Homo sapiens, UniProt P18031) | IC50 | nM | 1130 |
| CCCCc1oc2ccccc2c1C(Sc1nc2ccccc2s1)c1ccccc1 (stereo not drawn) [Example 32] | Human recombinant PTP1B (hPTP1B) (Homo sapiens, UniProt P18031) | IC50 | nM | 1000 |
| CCCCc1oc2ccccc2c1Cc1ccc2cc(O)ccc2c1 [Example 2] | Human recombinant PTP1B (hPTP1B) (Homo sapiens, UniProt P18031) | IC50 | nM | 1350 |
| CCCCc1oc2ccccc2c1C(O)c1ccc(-c2ccc(O)cc2)cc1 (stereo not drawn) [Example 14] | Human recombinant PTP1B (hPTP1B) (Homo sapiens, UniProt P18031) | IC50 | nM | 230 |
